These data points were gathered from paper PMC7228089.

- TEST_NAME: Odiparcil tissue exposure after repeated oral dosing (LC-MS/MS)
- Assay type: in vivo, Sprague Dawley rats
- CONDITION_DETAILS: Sprague-Dawley, rat, bone (head of femurs), po, 25 mg/kg, bone, oral 25 mg/kg/dose t.i.d. 5 days, read-out: Kp AUC (AUC tissue / AUC plasma)
PROPERTY_MEASURED: Kp at 120 h

CHEMICAL_STRUCTURE | NUMERIC_VALUE
Cc1cc(=O)oc2cc(O[C@@H]3SC[C@@H](O)[C@H](O)[C@H]3O)ccc12 | 0.18

* * *

- TEST_NAME: Odiparcil tissue exposure after repeated oral dosing (LC-MS/MS)
- Format: in vivo, Sprague Dawley rats
- CONDITION_DETAILS: Sprague-Dawley, rat, plasma, po, 25 mg/kg, plasma, oral 25 mg/kg/dose t.i.d. 5 days, 30 min after last administration, read-out: Cmax (converted)
PROPERTY_MEASURED: Cmax

CHEMICAL_STRUCTURE | PROPERTY_MEASURED | RESULT
Cc1cc(=O)oc2cc(O[C@@H]3SC[C@@H](O)[C@H](O)[C@H]3O)ccc12 | Cmax | ~7300 ng/mL

* * *

- TEST_NAME: Odiparcil tissue exposure after repeated oral dosing (LC-MS/MS)
- Format: in vivo, Sprague Dawley rats
- CONDITION_DETAILS: Sprague-Dawley, rat, plasma, po, 25 mg/kg, plasma, oral 25 mg/kg/dose t.i.d. 5 days, read-out: Cmax (converted)
PROPERTY_MEASURED: Cmax

CHEMICAL_STRUCTURE | RESULT
Cc1cc(=O)oc2cc(O[C@@H]3SC[C@@H](O)[C@H](O)[C@H]3O)ccc12 | ~22.5 µM

* * *

- TEST_NAME: Odiparcil tissue exposure after repeated oral dosing (LC-MS/MS)
- Format: in vivo, Sprague Dawley rats
- CONDITION_DETAILS: Sprague-Dawley, rat, bone, cartilage, cornea, po, 25 mg/kg/dose, bone, cartilage and cornea together, repeated oral dosing, read-out: AUC Kp

MOLECULE | Kp
Cc1cc(=O)oc2cc(O[C@@H]3SC[C@@H](O)[C@H](O)[C@H]3O)ccc12 [Odiparcil] | ~0.15

* * *

- TEST_NAME: Odiparcil tissue exposure after repeated oral dosing (LC-MS/MS)
- Format: in vivo, Sprague Dawley rats
- CONDITION_DETAILS: Sprague-Dawley, rat, cartilage (head of femurs), po, 25 mg/kg, cartilage, oral 25 mg/kg/dose t.i.d. 5 days, read-out: Cmax (converted)

CHEMICAL_STRUCTURE | Cmax [µM]
Cc1cc(=O)oc2cc(O[C@@H]3SC[C@@H](O)[C@H](O)[C@H]3O)ccc12 | 3.4

* * *

- TEST_NAME: Odiparcil tissue exposure after repeated oral dosing (LC-MS/MS)
- Assay type: in vivo, Sprague Dawley rats
- CONDITION_DETAILS: Sprague-Dawley, rat, heart, po, 25 mg/kg, heart, corrected for blood content (26%), oral 25 mg/kg/dose t.i.d. 5 days, read-out: blood corrected Kp AUC
- Method: Sprague Dawley rats were orally administered with odiparcil for 5-days, three times a day (t.i.d) with a 25 mg/kg/dose as a suspension in Methylcellulose 400 cps 1% / Poloxamer 188 0.1% / Water. […] Tissues were snap-frozen immediately after collection and stored at -20°C until odiparcil quantification by LC-MS/MS. […] Tissue partition coefficient (Kp) was calculated on AUC values (AUC tissue / AUC plasma). […]

CHEMICAL_STRUCTURE | Kp at 120 h
Cc1cc(=O)oc2cc(O[C@@H]3SC[C@@H](O)[C@H](O)[C@H]3O)ccc12 | ~0.44

* * *

- TEST_NAME: Odiparcil tissue exposure after repeated oral dosing (LC-MS/MS)
- Assay type: in vivo, Sprague Dawley rats
- CONDITION_DETAILS: Sprague-Dawley, rat, cartilage (head of femurs), po, 25 mg/kg, cartilage, oral 25 mg/kg/dose t.i.d. 5 days, read-out: Kp AUC (AUC tissue / AUC plasma)

CHEMICAL_STRUCTURE | Kp at 120 h
Cc1cc(=O)oc2cc(O[C@@H]3SC[C@@H](O)[C@H](O)[C@H]3O)ccc12 | 0.12

* * *

- Test system: Primary skin fibroblasts from MPS VI patients GM00538 and GM02572
- TEST_NAME: Intracellular chondroitin sulphate ([CS-56] immunofluorescence) in MPS VI patient skin fibroblasts
- Format: cell-based, human
- CONDITION_DETAILS: Homo sapiens, Skin fibroblast, 72 h, growing and confluent cell culture conditions, read-out: EC50 for the reduction of intracellular CS levels

CHEMICAL_STRUCTURE | SYSTEM | EC50
Cc1cc(=O)oc2cc(O[C@@H]3SC[C@@H](O)[C@H](O)[C@H]3O)ccc12 | Primary skin fibroblasts from MPS VI patients GM00538 and GM02572 | ~1000 nM

* * *

- TEST_NAME: Odiparcil tissue exposure after repeated oral dosing (LC-MS/MS)
- Assay type: in vivo, Sprague Dawley rats
- CONDITION_DETAILS: Sprague-Dawley, rat, bone (head of femurs), po, 25 mg/kg, bone, oral 25 mg/kg/dose t.i.d. 5 days, read-out: Cmax (converted)

CHEMICAL_STRUCTURE | Cmax [µM]
Cc1cc(=O)oc2cc(O[C@@H]3SC[C@@H](O)[C@H](O)[C@H]3O)ccc12 | 4
